compounds and their reported growth inhibition
Experiment: NCI Yeast Anticancer Drug Screen. Data for the sgs1 mgt1 strain (AID 161);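 further: 0% = growth of cultures given vehicle only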
Conditions: S. cerevisiae sgs1 mgt1 strain, at 50.0 µM, active compounds read high
Compounds without any hit were thinned out: in the full panel of roughly 79,000, 15% have a hit.
measured-attribute: growth inhibition (%)

{"columns": ["compound", "recorded-value"],
 "data": [
  ["CC(C)OC(=O)C(C)Br (stereo unspecified)", -8.35],
  ["CO[C@H]1Nc2c(ccc(C)c2O)C(=O)N2C=C(/C=C/C(N)=O)C[C@@H]12", 90],
  ["O=C(Nc1ccccc1Cl)Oc1c(Cl)cc(S(=O)(=O)F)cc1Cl", 34.1],
  ["CC1CN(C2CCCCC2)CO1 (stereo unspecified)", 0.8],
  ["CCCCCCCCCCCCCCCCOc1ccc(S(=O)(=O)F)cc1C(=O)Nc1ccc(S(=O)(=O)Nc2cccc3ccccc23)cc1", -2.75],
  ["N#C[C@H](OC1OC(COC2OC(CO)C(O)C(O)C2O)C(O)C(O)C1O)c1ccccc1 (stereo partly specified)", -20.6],
  ["CC(C)=CCC/C(C)=C/CC/C(C)=C/Cc1c(O)c2ccccc2oc1=O", 89.7],
  ["O=C([CH-]C(=O)c1ccccc1)c1ccccc1.O=C([CH-]C(=O)c1ccccc1)c1ccccc1.O=C([CH-]C(=O)c1ccccc1)c1ccccc1.[Cl-].[Hf+4]", 91.8],
  ["CCCNC(Cc1ccccc1)c1ccccc1 (stereo unspecified)", 3.4],
  ["O=C(CC(=O)C(F)(F)C(F)(F)C(F)(F)F)c1ccco1.[Ni]", 27.9],
  ["CCCCC1(C(C)C)C(=O)NC(=O)N(C)C1=O (stereo unspecified)", 5.15]
]}
